- target: UniProtKB P25774
- Sequence (P25774 115-331): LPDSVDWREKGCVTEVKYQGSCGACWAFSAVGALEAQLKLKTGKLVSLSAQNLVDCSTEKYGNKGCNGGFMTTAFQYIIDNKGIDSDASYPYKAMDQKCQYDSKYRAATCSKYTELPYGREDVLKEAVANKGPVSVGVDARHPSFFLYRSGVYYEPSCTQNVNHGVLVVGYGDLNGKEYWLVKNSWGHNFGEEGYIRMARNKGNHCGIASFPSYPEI
- measurementDescription: CatS functional enzyme assay
- Format: biochemical
- recordedConditions: recombinant human CatS, substrate Z-VVR-AMC 5 μM, pH 6.5; Ki by Cheng Prusoff equation; read-out: hCatS, Ki
- Method: Reference and test compounds were assayed for inhibitory potency (IC50) against human cathepsins using the following assay setups: Recombinant human cathepsins (CatS, CatK, CatL) were purchased from a Enzo Life Sciences. […] Flourogenic substrate turnover was detected using a microplate reader (Synergy™ H4, BioTek). Ki values were calculated using the Cheng Prusoff equation (Cheng & Prosoff 1973).
assayMetric: pKi
Notebook: values listed as pKi are -log10 of the concentration (mol/L).

Given the compound O=C(N[C@H](C(=O)N1C[C@H](Cl)[C@H]2OCC(=O)[C@H]21)C1CCCCC1)c1ncc(-c2ccc(C(F)(F)F)nc2)s1 [Example 68] and test system UniProtKB P25774, the measured pKi is 6.42

Recorded pKi for O=C(N[C@H](C(=O)N1C[C@H](Cl)[C@H]2OCC(=O)[C@H]21)C1CCCCC1)c1ncc(-c2cnccn2)s1 [Example 48] on UniProtKB P25774 was 6.62

Field pKi (UniProtKB P25774), entry O=C(N[C@H](C(=O)N1C[C@H](Cl)[C@H]2OCC(=O)[C@H]21)C1CCCCC1)c1ncc(-c2ccncn2)s1 [Example 26] : 6.66

Result for C[S+]([O-])c1cnnc(-c2ccc(C(=O)N[C@H](C(=O)N3C[C@H](Cl)[C@H]4OCC(=O)[C@H]43)C3CCCCC3)s2)c1 (stereo partly drawn) [Example 76] , tested on UniProtKB P25774, pKi: 7.54

GET /values?item= Cc1cnnc(-c2ccc(C(=O)N[C@H](C(=O)N3C[C@H](Cl)[C@H]4OCC(=O)[C@H]43)C3CCCCC3)s2)c1 [Example 44] &system= UniProtKB P25774 returns pKi: 7.15

Measured pKi for this entry Cc1cc(-c2ccc(C(=O)N[C@H](C(=O)N3C[C@H](Cl)[C@H]4OCC(=O)[C@H]43)C3CCCCC3)s2)c(C)nn1 [Example 89] on UniProtKB P25774: 7.89

// assay UniProtKB P25774, entry O=C(N[C@H](C(=O)N1C[C@H](Cl)[C@H]2OCC(=O)[C@H]21)C1CCCCC1)c1cc(F)c(-c2cccnn2)s1 [Example 54] , pKi value = 6.28

Tested on UniProtKB P25774, the item Cc1cc(-c2cnc(C(=O)N[C@H](C(=O)N3C[C@H](Cl)[C@H]4OCC(=O)[C@H]43)C3CCCCC3)s2)cn[n+]1[O-] [Example 77] showed pKi equal to 7.60

Let me check: Cc1cc(-c2ccc(C(=O)N[C@H](C(=O)N3C[C@H](Cl)[C@H]4OCC(=O)[C@H]43)C3CCCCC3)s2)c(C)cn1 [Example 88] , system UniProtKB P25774, measured pKi is 6.47
